System: 786-O (clear cell renal cell adenocarcinoma cell)
Assay: CellTiter-Glo cell viability, 786-O
Type: cell-based
Details: Homo sapiens, 786-0, insensitive group, 3-4 days of culture, n=3
Structures can show the parent of a compound that is named as a salt.
readoutKind: IC50 (µM)

• NCCNc1ccc(NCCN)c2c1C(=O)c1ccncc1C2=O [Pixantrone maleate, pixantrone maleate] = 21.6

###

System: G-401 (human renal carcinoma Wilms cell)
Assay: CellTiter-Glo cell viability, G-401
Assay type: cell-based
Conditions: sensitive group, 3-4 days of culture, n=3
pIC50: −log10 of the molar value. Counter-ions that a name gives are not always drawn.
readoutKind: pIC50

- NCCNc1ccc(NCCN)c2c1C(=O)c1ccncc1C2=O [Pixantrone maleate, pixantrone maleate]: 6.54

###

Tested on: MDA-MB-453 (breast cancer cell)
Assay: CellTiter-Glo cell viability, MDA-MB-453
Format: cell-based
Conditions: Homo sapiens, sensitive group, 3-4 days of culture, n=3
Structures can show the parent of a compound that is named as a salt.
readoutKind: IC50

* NCCNc1ccc(NCCN)c2c1C(=O)c1ccncc1C2=O [Pixantrone maleate, pixantrone maleate] | 860 nM

###

Test system: NCI-H82 (human small cell lung cancer cell)
Test: CellTiter-Glo cell viability, NCI-H82
Assay type: cell-based
Settings: sensitive group, 3-4 days of culture, n=3
Counter-ions that a name gives are not always drawn.
readoutKind: IC50

- NCCNc1ccc(NCCN)c2c1C(=O)c1ccncc1C2=O [Pixantrone maleate, pixantrone maleate]: 740 nM
